- System: DeltatarO mutant
- method-notes: S. aureus survival, RN4220 and DeltatarO strains – OD600, teichoic acid synthesis inhibitors, primary screen (AID 463173)
- condition-context: S. aureus RN4220 wild type/DeltatarO growth, OD600, 18 h, screened at 18.75 µg/mL (by protocol)
In all, about 52,000 compounds went through this assay and about 4,300 (8.3%) were called active. Rule as the data show it: active = survival mostly below about 52% (no sharp cut-off); inactive = mostly above about 56%. Many of the other results were omitted from the sample, so actives are more common in it than they were.
Returns: one label drawn from t = active, f = inactive

State the result this test recorded for Cc1coc2c(C)c3oc(=O)c(CCC(=O)NCCc4ccccc4F)c(C)c3cc12 . f

Dear all, I need the recorded test outcome for CS(=O)(=O)c1ncc(N(Cc2ccccc2)Cc2ccco2)c(C(=O)Nc2cccc(C(F)(F)F)c2)n1 , thank you. f

Next:
For this molecule, state the assay outcome: CC(C)c1ccc(CN(Cc2ccco2)c2cnc(S(C)(=O)=O)nc2C(=O)Nc2ccccc2)cc1 t

Could you please tell me the result logged for COc1ccc(CNC(=O)c2ccc3nc(CCc4ccccc4)oc3c2)cc1 in this assay? t

Look up the recorded call for COc1ccc(CN(Cc2ccco2)c2cnc(S(C)(=O)=O)nc2C(=O)Nc2ccc(C)c(C)c2)cc1 in this test. t

====

- System: DeltatarO mutant
- method-notes: S. aureus survival, RN4220 and DeltatarO strains – OD600, teichoic acid synthesis inhibitors, primary screen (AID 463173)
- condition-context: S. aureus RN4220 wild type/DeltatarO growth, OD600, 18 h, screened at 18.75 µg/mL (by protocol)
In all, about 52,000 compounds went through this assay and about 4,300 (8.3%) were called active. No stated cut-off is given here; in the data, active means survival mostly below about 52% (no sharp cut-off); inactive means mostly above about 56%. This is one part of a sample in which actives are shown more often than they occur.
I would appreciate it if you answered using one of these outcomes: TRUE = active, FALSE = inactive

Here are 4 compounds together with their reported answers.
Entry Cc1ccc(-n2ncc3c(N4CCN(C)CC4)ncnc32)cc1Cl : call = ? FALSE

Lab log entry: COc1cc(CNC(=O)c2cnc3c(-c4cccc(C)c4)c(C)nn3c2C)cc(OC)c1OC — outcome as called in the assay? FALSE

What did the test return for CCCNC(=O)c1cnc2c(-c3ccc(OCC)c(OCC)c3)c(C)nn2c1-c1ccccc1 ? FALSE

How did this test come out for COc1ccc(-n2ncc(C(=O)NCc3ccco3)c2C2CCN(C(=O)OC(C)(C)C)CC2)cc1 ? FALSE

New cases:
Could you please tell me the result logged for Cc1cccc(CNC(=O)c2cnc3c(-c4cccc(C)c4)c(C)nn3c2C)c1 in this assay? TRUE

What was the test verdict on CCOc1ccc(-c2c(C)nn3c(C)c(C(=O)Nc4cccc(Cl)c4C)cnc23)cc1OCC ? FALSE

====

- System: DeltatarO mutant
- method-notes: S. aureus survival, RN4220 and DeltatarO strains – OD600, teichoic acid synthesis inhibitors, primary screen (AID 463173)
- condition-context: S. aureus RN4220 wild type/DeltatarO growth, OD600, 18 h, active compounds read low, screened at 18.75 µg/mL (by protocol)
Among all 52,000 compounds or so, about 4,300 (8.3%) were called active. The entries come from a sample that favours actives as a whole.
Known survival of a selection of compounds
Field format: number, assumed %, no unit text.

Past entries and their recorded results:
Would you kindly share the measured survival for COc1ccc(NC(=O)c2cc(S(=O)(=O)N3CCOCC3)cn2C)cc1Cl ? 108

# lookup: survival of Cc1ccc(Cl)cc1NC(=O)Cn1c(=O)n(Cc2ccccc2)c(=O)c2oc3ccccc3c21 81

Please give the measured survival for this compound: Cc1cc(NS(=O)(=O)c2ccc(NC(=O)COc3ccc(Br)cc3C)cc2)no1 32

survival lookup needed for Cc1ccc(NC(=O)COCc2cc(-c3cccs3)on2)cc1Cl , thanks. 57

Please find the next compound below.
Item O=C(CN1CCC(n2nnc3cc(C(F)(F)F)ccc32)CC1)Nc1ccc(N2CCCC2)cc1 has what recorded survival? 86

Reference for the values: PubChem BioAssay AID463173
